# procedureDetails: Cytotoxicity against porcine PEK cells assessed as reduction in cell viability after 7 days by resazurin staining based analysis
# Assay type: toxicity, Sus scrofa
# recordedConditions: pig, time 7 day
Would you kindly list CC50 at 168 h for each of these molecules?
Return type: number; implicit unit µM.

GET /value?item= OC[C@H]1O[C@@H](n2cnc3c(NCc4ccc(C#CC5CCCC5)cc4)ncnc32)[C@H](O)[C@@H]1O &field=CC50 at 168 h returns 37

GET /value?item= OC[C@H]1O[C@@H](n2cnc3c(NCc4ccc(-c5cccc(C(F)(F)F)c5)cc4)ncnc32)[C@H](O)[C@@H]1O &field=CC50 at 168 h returns 36.7

GET /value?item= OC[C@H]1O[C@@H](n2cnc3c(NCc4ccc(C#Cc5cc(C(F)(F)F)cc(C(F)(F)F)c5)cc4)ncnc32)[C@H](O)[C@@H]1O &field=CC50 at 168 h returns 8.1

GET /value?item= OC[C@H]1O[C@@H](n2cnc3c(NCc4ccc(C#CC5=CCCCC5)cc4)ncnc32)[C@H](O)[C@@H]1O &field=CC50 at 168 h returns 36.6
